Each recorded value in this set is attributed to the supplement of paper PMC9233669.

Test system: biotinyl-Met-oxazolone
assay_text: self-aminoacylation, catalytic enhancement (BMO) (fold over background); higher = more active; k-Seq, kA / k0A0; sequences stand for … in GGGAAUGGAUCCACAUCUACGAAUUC…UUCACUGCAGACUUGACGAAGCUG
This sample holds only a part of the variants without activity.
readout_name: self-aminoacylation
Give the figure by itself; no unit, no explanation.

- seq: "AGUACCUUGGUCAUCGAGUGA [Fam2.1 aminoacylation ribozyme variant]"
  recorded_number: 6.27
- seq: "GUUAUCCUGGUCAUCGAGUGA [Fam2.1 aminoacylation ribozyme variant]"
  recorded_number: 10.9
- seq: "AUUCAACUAUGUCAUCGGGUG [Fam2.2 aminoacylation ribozyme variant]"
  recorded_number: 4.78
- seq: "GUACUUCAAACGAUCGGUCUG [Fam1A.1 aminoacylation ribozyme variant]"
  recorded_number: 1.13

*Q* // fetch biotinyl-Met-oxazolone self-aminoacylation for UUUACCCUUGUCAUCGAGUGA [Fam2.1 aminoacylation ribozyme variant]
*A* 6.04

*Q* biotinyl-Met-oxazolone / self-aminoacylation / ACGUUUGCUAAUAGUCGCAUG [Fam3.1 aminoacylation ribozyme variant] : value?
*A* 2.14

*Q* So what self-aminoacylation did CCACACUUCAAGCAAUCCGAC [Fam1B.1 aminoacylation ribozyme variant] get with biotinyl-Met-oxazolone?
*A* 0.516

*Q* Hello, I am looking for reported self-aminoacylation with biotinyl-Met-oxazolone for CCACACUCCAAGGAAUCGGUC [Fam1B.1 aminoacylation ribozyme variant] . Could you help?
*A* 1.32

*Q* Request body: readout self-aminoacylation, system biotinyl-Met-oxazolone, query CCACACUUGAAGCAACCGGUC [Fam1B.1 aminoacylation ribozyme variant] . Return the value.
*A* 0.694

###

# maps each entry to its self-aminoacylation
System: biotinyl-Val-oxazolone
assay_text: self-aminoacylation, catalytic enhancement (BVO) (fold over background); higher = more active; k-Seq, kA / k0A0; sequences stand for … in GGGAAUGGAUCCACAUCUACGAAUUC…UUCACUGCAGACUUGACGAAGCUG
Fewer inactive variants are shown than the library holds.
Enter a number only.

Please review the following examples before continuing.
- seq: "CUACUUCAAAUAAUCGGCCUG [Fam1A.1 aminoacylation ribozyme variant]"
  tested_on: "biotinyl-Val-oxazolone"
  self-aminoacylation: 0.985
- seq: "AAUCACCUAGGUCAUCGGGGG [Fam2.2 aminoacylation ribozyme variant]"
  tested_on: "biotinyl-Val-oxazolone"
  self-aminoacylation: 2.77
- seq: "AUUACUCUGGUCAUCGGGUGA [Fam2.1 aminoacylation ribozyme variant]"
  tested_on: "biotinyl-Val-oxazolone"
  self-aminoacylation: 6.05
- seq: "CAGUUUGCUAACAGUCGCAAG [Fam3.1 aminoacylation ribozyme variant]"
  tested_on: "biotinyl-Val-oxazolone"
  self-aminoacylation: 1.16
- seq: "AAGAUUGCUAAUAGUCGGAAG [Fam3.1 aminoacylation ribozyme variant]"
  tested_on: "biotinyl-Val-oxazolone"
  self-aminoacylation: 1.22
- seq: "CCACACUUCAUGCGAUCGGUC [Fam1B.1 aminoacylation ribozyme variant]"
  tested_on: "biotinyl-Val-oxazolone"
  self-aminoacylation: 1.17
- seq: "AUUCACCAAGGUCAUCGGAUG [Fam2.2 aminoacylation ribozyme variant]"
  tested_on: "biotinyl-Val-oxazolone"
  self-aminoacylation: 1.17
- seq: "AGGAUUGCUAAUAGUCGCAAG [Fam3.1 aminoacylation ribozyme variant]"
  tested_on: "biotinyl-Val-oxazolone"
  self-aminoacylation: 1.88

*Q* Requested read-out: self-aminoacylation. Entry: CCACUCUUCAAACAAUCGGUC [Fam1B.1 aminoacylation ribozyme variant]
*A* 1.3
